Data origin, for the record: patent US20260265238A1

ASSAYED TARGET: SMARCA4-HiBiT HeLa cells (protein which is expressed from the SMARCA4 gene) (Homo sapiens, UniProt P51532)
Construct: protein which is expressed from the SMARCA2 and SMARCA4 genes; host or cells: HeLa (SMARCA4-HiBiT engineered line)
Sequence (P51532 whole entry): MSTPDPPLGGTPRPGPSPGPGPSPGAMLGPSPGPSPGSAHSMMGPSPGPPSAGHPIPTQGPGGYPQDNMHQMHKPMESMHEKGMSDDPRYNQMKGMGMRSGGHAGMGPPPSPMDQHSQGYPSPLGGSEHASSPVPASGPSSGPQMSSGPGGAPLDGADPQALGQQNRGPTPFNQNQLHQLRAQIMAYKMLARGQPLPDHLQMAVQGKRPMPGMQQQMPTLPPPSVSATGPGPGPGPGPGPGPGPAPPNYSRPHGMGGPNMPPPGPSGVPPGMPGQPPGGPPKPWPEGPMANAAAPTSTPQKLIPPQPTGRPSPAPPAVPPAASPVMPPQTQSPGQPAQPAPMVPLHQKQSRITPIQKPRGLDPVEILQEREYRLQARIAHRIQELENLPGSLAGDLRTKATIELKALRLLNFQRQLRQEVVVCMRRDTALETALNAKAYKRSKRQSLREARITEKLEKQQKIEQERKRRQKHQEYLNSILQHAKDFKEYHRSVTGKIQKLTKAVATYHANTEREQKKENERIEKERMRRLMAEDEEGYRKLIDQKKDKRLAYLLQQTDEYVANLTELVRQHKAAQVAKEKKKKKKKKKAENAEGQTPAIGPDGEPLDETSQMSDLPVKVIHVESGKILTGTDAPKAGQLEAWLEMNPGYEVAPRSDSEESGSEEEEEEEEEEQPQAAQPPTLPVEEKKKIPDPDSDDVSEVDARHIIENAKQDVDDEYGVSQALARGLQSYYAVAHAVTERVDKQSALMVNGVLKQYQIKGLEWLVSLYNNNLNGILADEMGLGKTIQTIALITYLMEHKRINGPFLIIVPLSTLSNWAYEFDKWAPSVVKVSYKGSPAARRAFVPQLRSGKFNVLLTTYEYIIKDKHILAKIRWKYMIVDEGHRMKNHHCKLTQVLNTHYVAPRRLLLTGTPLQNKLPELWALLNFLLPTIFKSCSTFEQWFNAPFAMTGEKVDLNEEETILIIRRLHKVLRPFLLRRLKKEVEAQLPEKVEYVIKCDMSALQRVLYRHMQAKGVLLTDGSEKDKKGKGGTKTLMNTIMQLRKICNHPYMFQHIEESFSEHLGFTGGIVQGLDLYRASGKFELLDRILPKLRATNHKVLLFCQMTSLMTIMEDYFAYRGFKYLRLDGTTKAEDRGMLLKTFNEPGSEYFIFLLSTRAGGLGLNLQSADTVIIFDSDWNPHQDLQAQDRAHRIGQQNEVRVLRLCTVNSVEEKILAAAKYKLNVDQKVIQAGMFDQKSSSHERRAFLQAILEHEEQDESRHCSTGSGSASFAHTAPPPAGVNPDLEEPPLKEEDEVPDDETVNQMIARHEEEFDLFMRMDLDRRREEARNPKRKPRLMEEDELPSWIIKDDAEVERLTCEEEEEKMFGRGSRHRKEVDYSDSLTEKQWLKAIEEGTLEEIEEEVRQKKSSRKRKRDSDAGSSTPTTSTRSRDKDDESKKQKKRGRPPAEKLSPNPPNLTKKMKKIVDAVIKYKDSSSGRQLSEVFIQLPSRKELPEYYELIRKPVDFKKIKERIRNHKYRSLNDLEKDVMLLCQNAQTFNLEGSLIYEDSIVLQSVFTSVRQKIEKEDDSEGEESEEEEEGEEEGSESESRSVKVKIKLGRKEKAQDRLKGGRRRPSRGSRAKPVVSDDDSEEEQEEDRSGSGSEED
TEST: SMARCA4 degradation assay (HiBiT-fusion HeLa cell line, 24 h, luminescence)
Assay type: cell-based
EXPERIMENTAL CONDITIONS: 1 μM
MEASURED ENDPOINT: inhibition at 1 µM

| COMPOUND SMILES | OBSERVED VALUE |
| --- | --- |
| C[C@@H]1CCN(c2cc(-c3ccccc3O)nnc2N)CCN1c1ccc(C#N)c(C#CCN2CC3CC2C3)n1 | 30 to 70% |
| C[C@@H]1CCN(c2cc(-c3ccccc3O)nnc2N)CCN1c1cc(C#CCn2ccnc2)ncc1Cl | 30 to 70% |
| C[C@@H]1CCN(c2cc(-c3ccccc3O)nnc2N)CCN1c1ccc(C#N)c(C#CCN2CC(F)(F)C2)n1 | < 30% |
| C[C@@H]1CCN(c2cc(-c3ccccc3O)nnc2N)CCN1c1ccc(C#N)c(C#CCn2ccnc2)n1 | 30 to 70% |
| C[C@@H]1CCN(c2cc(-c3ccccc3O)nnc2N)CCN1c1ccnc(C#CCn2cncn2)c1 | 30 to 70% |
| C[C@H]1CCN(c2cc(-c3ccccc3O)nnc2N)CCN1c1ccc(C#N)c(C#CCN2CC[C@H](F)C2)n1 | < 30% |

Please look at the following compound next.
Q: Write down inhibition at 1 µM measured for item `C[C@@H]1CCN(c2cc(-c3ccccc3O)nnc2N)CCN1c1ccnc(C#CCN2CCCCC2)c1`
Result: 30 to 70%
